Source of measurements: PubChem BioAssay AID1159580

- Assay Name: chemical genetic growth profiling, strain panel (AID 1159580);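 note: tested at 20 µM; growth read once vehicle control cultures reached saturation at 30 °C; lower values mean less growth of the strain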
- Condition: S. cerevisiae deletion strains, growth OD, locus YNL175C, strain NOP13
In all, about 5,500 compounds went through this assay and about 2,000 (36%) were called active. About 18% were inconclusive and are not listed. Cut-off read from the data, not from the text of the source: active = normalized growth mostly below about 0.91 (no sharp cut-off); inconclusive = no clear call, values can overlap the other calls; inactive = mostly above about 0.92. The list shows a part of the results.
Outcomes: True for active, False for inactive

- Compound: "NC(N)=NC(=O)c1nc(Cl)c(N2CCCCCC2)nc1N"
  Category: "False"
- Compound: "NC(N)=NC(=O)c1nc(Cl)c(N)nc1N"
  Category: "False"
- Compound: "NC(=O)CN1CCCC1=O"
  Category: "False"
- Compound: "CSc1nc(N)c2ncn([C@@H]3O[C@H](COP(=O)(O)OP(=O)(O)OP(=O)(O)O)[C@H](O)C3O)c2n1 (some centres not stated)"
  Category: "False"
- Compound: "CCC1(O)CC2CN(CCc3c([nH]c4ccccc34)[C@@](C(=O)OC)(c3cc4c(cc3OC)N(C=O)C3[C@]45CCN4CC=C[C@@](CC)([C@@H](OC(C)=O)[C@]3(O)C(=O)OC)[C@H]45)C2)C1 (some centres not stated)"
  Category: "False"
- Compound: "O=c1c(O)c(-c2ccc(O)c(O)c2)oc2cc(O)cc(O)c12"
  Category: "False"
- Compound: "CCN(CC)C(=O)N[C@H]1C=C2c3cccc4[nH]cc(c34)C[C@H]2N(C)C1"
  Category: "False"
- Compound: "CC1=NN=C(c2ccc(N)cc2)c2cc3c(cc2C1)OCO3"
  Category: "False"
- Compound: "N#CC(C#N)=C(N)/C(C#N)=C/c1ccc(O)cc1"
  Category: "False"
- Compound: "CN(C)c1ccc(/C=C2\\C(=O)Nc3ccccc32)cc1"
  Category: "True"
- Compound: "O=c1c(O)c(-c2ccc(O)cc2O)oc2cc(O)cc(O)c12"
  Category: "False"
- Compound: "COC(=O)[C@@H]1[C@H]2C[C@H]3c4[nH]c5ccccc5c4CCN3C[C@@H]2CC[C@@H]1O"
  Category: "False"
